biological target: mu opioid receptor (MOR) (Homo sapiens); assay: PathHunter β-arrestin recruitment assay, PAM mode with EC20 endomorphin-1; format: cell-based; conditions: β-arrestin recruitment; read-out: β-arr. EC50
pEC50: −log10 of the molar value.
MEASUREMENT NAME: pEC50

Example compounds with recorded pEC50:
COc1ccc(C2CCCCN2S(=O)(=O)c2ccc(Cl)cc2)cc1Br (racemic) [compound 4]	< 5.68
Fc1ccc(C(F)(F)F)cc1C1CCCCN1c1nc(Cl)ncc1F (stereo not shown)	> 6.15
Fc1cnc(Cl)nc1N1CCCCC1c1cccc(C(F)(F)F)c1 (stereo not shown) [compound 7]	> 6.15

Below: the item to evaluate.
Measured pEC50 of COc1ccc(C2CC(C)CN2S(=O)(=O)c2ccc(Cl)cc2)cc1Br (single isomer, unassigned) : 5.68 to 6.15

---

biological target: mu opioid receptor (MOR) (Homo sapiens, UniProt P35372); assay: PathHunter β-arrestin recruitment assay, PAM mode with EC20 endomorphin-1; format: cell-based; conditions: β-arrestin recruitment; read-out: β-arr. EC50
Sequence (P35372 whole entry): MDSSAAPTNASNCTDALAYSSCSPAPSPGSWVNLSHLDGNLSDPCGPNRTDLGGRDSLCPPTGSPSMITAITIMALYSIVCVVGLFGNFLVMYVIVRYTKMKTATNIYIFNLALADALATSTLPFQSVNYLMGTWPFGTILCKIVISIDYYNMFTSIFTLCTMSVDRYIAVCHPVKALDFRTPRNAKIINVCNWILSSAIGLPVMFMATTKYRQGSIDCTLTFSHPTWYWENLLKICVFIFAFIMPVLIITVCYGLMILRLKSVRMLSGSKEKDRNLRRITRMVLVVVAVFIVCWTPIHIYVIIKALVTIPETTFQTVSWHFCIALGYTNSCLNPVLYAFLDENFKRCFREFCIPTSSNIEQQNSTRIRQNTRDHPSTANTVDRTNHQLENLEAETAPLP
MEASUREMENT NAME: EC50

Example compounds with recorded EC50:
Fc1cnc(Cl)nc1N1CCCCC1c1cccc2ncnn12 (stereo not shown)	< 700 nM
COc1ccc(C2N(S(=O)(=O)c3ccc(Cl)cc3)CCC2(F)F)cc1Br (stereo not shown) [Compound 113]	> 2100 nM
Fc1ncc(F)c(N2CCCCC2c2cccc(C(F)(F)F)c2)n1 (stereo not shown)	< 700 nM

Respectfully, I request EC50 for each entry included below.
1. COc1ccc(C2CCCCN2S(=O)(=O)c2ccccc2)cc1Br (stereo not shown)
2. COc1ccc(C2N(S(=O)(=O)c3ccc(Cl)cc3)CCC2(F)C(F)(F)F)cc1Br (mixture of isomers)
3. Cc1ccc(C2CCCCN2c2nc(Cl)ncc2F)cn1 (stereo not shown)
4. Fc1ccc(C2C3CCC(C3)N2c2nc(Cl)ncc2F)cc1Br (stereo not shown)
5. O=S(=O)(c1ccc(Cl)cc1)N1CCCCC1c1ccc(Br)c(F)c1 (racemic)
6. Fc1c(Cl)cccc1CN1CCCCC1c1cccc(C(F)(F)F)n1 (stereo not shown)

Result:
1. > 2100 nM
2. > 2100 nM
3. < 700 nM
4. > 2100 nM
5. > 2100 nM
6. 700 to 2100 nM

Measured EC50 of Fc1cnc(Cl)nc1N1CCCCC1c1ccc(C(F)(F)F)nc1 (stereo not shown) : < 700 nM
